- measuredTarget: Melanocortin receptor 3 (Homo sapiens)
- Sequence (P41968 whole entry): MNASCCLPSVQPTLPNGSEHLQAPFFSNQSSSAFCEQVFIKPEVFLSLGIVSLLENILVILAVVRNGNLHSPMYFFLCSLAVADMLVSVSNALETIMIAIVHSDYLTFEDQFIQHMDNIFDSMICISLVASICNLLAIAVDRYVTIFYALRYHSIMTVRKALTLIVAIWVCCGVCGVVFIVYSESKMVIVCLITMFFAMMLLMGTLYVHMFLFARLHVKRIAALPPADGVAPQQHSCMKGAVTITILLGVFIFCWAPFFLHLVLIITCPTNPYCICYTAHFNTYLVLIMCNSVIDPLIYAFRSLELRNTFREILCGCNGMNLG
- assayText: Displacement of [125I]-NAD-alpha-MSH from human recombinant MC3 receptor expressed in BHK570 cells after 1 hr in presence of ovalbumin
Doc: threshold 0.03 µM (exclusive). Items with Ki beneath it return Fulfilled; others return Not fulfilled.

Worked examples, 5 molecules total:
structure	classAssignment
CCCC[C@H](NC(=O)[C@H](CO)NC(=O)[C@H](CCCCN=C(N)N)NC(=O)[C@H](CCC(N)=O)NC(=O)[C@H](CO)NC(=O)CNC(C)=O)C(=O)N[C@H]1CCC(=O)NCCCC[C@@H](C(N)=O)NC(=O)[C@H](Cc2c[nH]c3ccccc23)NC(=O)[C@H](CCCN=C(N)N)NC(=O)[C@@H](Cc2ccccc2)NC(=O)[C@@H]2C[C@@H](O)CN2C1=O	Fulfilled
CCCCCCCCCCCCCCCC(=O)NCC(=O)N[C@@H](CO)C(=O)N[C@@H](CCC(N)=O)C(=O)N[C@@H](CCCCNC(=N)N)C(=O)N[C@@H](CO)C(=O)N[C@@H](CCCC)C(=O)N[C@H]1CCC(=O)NCCCC[C@@H](C(N)=O)NC(=O)[C@H](Cc2c[nH]c3ccccc23)NC(=O)[C@H](CCCNC(=N)N)NC(=O)[C@@H](Cc2ccccc2)NC(=O)[C@@H]2C[C@@H](O)CN2C1=O	Fulfilled
CCCCCCCCCCCCCCCC(=O)NS(=O)(=O)CCCC(=O)NCC(=O)N[C@@H](CO)C(=O)N[C@@H](CCC(N)=O)C(=O)N[C@@H](Cc1cnc[nH]1)C(=O)N[C@@H](CO)C(=O)N[C@@H](CCCC)C(=O)N[C@H]1CCC(=O)NCCCC[C@@H](C(N)=O)NC(=O)[C@H](Cc2c[nH]c3ccccc23)NC(=O)[C@H](CCCNC(=N)N)NC(=O)[C@@H](Cc2ccccc2)NC(=O)[C@@H]2C[C@@H](O)CN2C1=O	Fulfilled
CCCCCCCCCCCCCCCC(=O)NCC(=O)N[C@@H](CO)C(=O)N[C@@H](CCC(N)=O)C(=O)N[C@@H](Cc1cnc[nH]1)C(=O)N[C@@H](CO)C(=O)N[C@@H](CCCC)C(=O)N[C@H]1CCC(=O)NCCCC[C@@H](C(N)=O)NC(=O)[C@H](Cc2c[nH]c3ccccc23)NC(=O)[C@H](CCCNC(=N)N)NC(=O)[C@@H](Cc2ccccc2)NC(=O)[C@@H]2C[C@@H](O)CN2C1=O	Fulfilled
CCCC[C@H](NC(=O)[C@H](CN)NC(=O)[C@H](Cc1cnc[nH]1)NC(=O)[C@H](CCC(N)=O)NC(=O)[C@H](CO)NC(=O)CNC(=O)COCCOCCNC(=O)CCCCCCCCCCCCCCCc1nnn[nH]1)C(=O)N[C@H]1CCC(=O)NCCCC[C@@H](C(N)=O)NC(=O)[C@H](Cc2c[nH]c3ccccc23)NC(=O)[C@H](CCCN=C(N)N)NC(=O)[C@@H](Cc2ccccc2)NC(=O)[C@@H]2C[C@@H](O)CN2C1=O	Not fulfilled

Please check: Ki for `CCCCCCCCCCCCCCCC(=O)NCC(=O)NCC(=O)NCC(=O)NCC(=O)NCC(=O)N[C@@H](CCCC)C(=O)N[C@H]1CCC(=O)NCCCC[C@@H](C(N)=O)NC(=O)[C@H](Cc2c[nH]c3ccccc23)NC(=O)[C@H](CCCNC(=N)N)NC(=O)[C@@H](Cc2ccccc2)NC(=O)[C@@H]2C[C@@H](O)CN2C1=O` , strictly under 0.03 µM or not? Fulfilled

Please check: Ki for `CCCC[C@H](NC(=O)[C@H](CNC(C)C)NC(=O)[C@H](Cc1cnc[nH]1)NC(=O)[C@H](CCC(N)=O)NC(=O)[C@H](CO)NC(=O)CNC(=O)COCCOCCNC(=O)CCCCCCCCCCCCCCCc1nnn[nH]1)C(=O)N[C@H]1CCC(=O)NCCCC[C@@H](C(N)=O)NC(=O)[C@H](Cc2c[nH]c3ccccc23)NC(=O)[C@H](CCCNC(=N)N)NC(=O)[C@@H](Cc2ccccc2)NC(=O)[C@@H]2C[C@@H](O)CN2C1=O` , strictly under 0.03 µM or not? Fulfilled

Please check: Ki for `CCCC[C@H](NC(=O)[C@H](CN(C)C)NC(=O)[C@H](Cc1cnc[nH]1)NC(=O)[C@H](CCC(N)=O)NC(=O)[C@H](CO)NC(=O)CNC(=O)COCCOCCNC(=O)CCCCCCCCCCCCCCCc1nnn[nH]1)C(=O)N[C@H]1CCC(=O)NCCCC[C@@H](C(N)=O)NC(=O)[C@H](Cc2c[nH]c3ccccc23)NC(=O)[C@H](CCCNC(=N)N)NC(=O)[C@@H](Cc2ccccc2)NC(=O)[C@@H]2C[C@@H](O)CN2C1=O` , strictly under 0.03 µM or not? Fulfilled
